target: JAK3 enzyme (Homo sapiens, UniProt P52333); test: JAK Caliper Enzyme Assay at 4 μM ATP; assay type: biochemical
Sequence (P52333 whole entry, species assumed): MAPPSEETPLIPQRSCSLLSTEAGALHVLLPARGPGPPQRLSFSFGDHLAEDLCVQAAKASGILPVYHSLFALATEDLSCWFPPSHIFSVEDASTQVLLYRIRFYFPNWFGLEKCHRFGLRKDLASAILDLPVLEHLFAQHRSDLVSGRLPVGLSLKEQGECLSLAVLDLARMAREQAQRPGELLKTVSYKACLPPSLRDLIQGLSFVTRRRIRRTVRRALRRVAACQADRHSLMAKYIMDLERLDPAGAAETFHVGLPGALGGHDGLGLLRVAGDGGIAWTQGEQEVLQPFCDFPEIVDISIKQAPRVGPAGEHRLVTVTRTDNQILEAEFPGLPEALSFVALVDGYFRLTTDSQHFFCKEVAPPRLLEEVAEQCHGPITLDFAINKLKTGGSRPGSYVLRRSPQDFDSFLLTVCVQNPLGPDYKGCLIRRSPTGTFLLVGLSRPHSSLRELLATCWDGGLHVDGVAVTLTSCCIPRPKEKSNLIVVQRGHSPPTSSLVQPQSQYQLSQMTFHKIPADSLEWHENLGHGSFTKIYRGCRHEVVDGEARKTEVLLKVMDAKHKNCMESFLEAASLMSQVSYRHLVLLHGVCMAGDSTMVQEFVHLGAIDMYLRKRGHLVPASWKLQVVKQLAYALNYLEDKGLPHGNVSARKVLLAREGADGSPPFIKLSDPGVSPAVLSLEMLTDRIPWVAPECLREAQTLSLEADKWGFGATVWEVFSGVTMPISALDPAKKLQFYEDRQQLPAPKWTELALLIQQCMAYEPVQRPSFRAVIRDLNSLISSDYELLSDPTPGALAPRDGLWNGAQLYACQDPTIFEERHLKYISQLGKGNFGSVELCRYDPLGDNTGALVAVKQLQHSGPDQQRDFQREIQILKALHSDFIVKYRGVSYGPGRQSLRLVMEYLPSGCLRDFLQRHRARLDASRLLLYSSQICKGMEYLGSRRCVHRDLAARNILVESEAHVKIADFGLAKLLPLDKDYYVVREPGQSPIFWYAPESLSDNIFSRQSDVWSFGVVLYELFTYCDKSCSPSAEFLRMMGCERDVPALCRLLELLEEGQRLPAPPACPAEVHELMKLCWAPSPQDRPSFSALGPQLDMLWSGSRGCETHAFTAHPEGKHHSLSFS
# note: boundary value 0.5 nM maps to NO; IC50 below it maps to YES

MOLECULE | CATEGORY_LABEL
C=CC(=O)N1C[C@H](Nc2ncnc3[nH]ccc23)CC[C@@H]1COC (single isomer, unassigned) | NO

Is 0.5 nM strictly greater than the molecule's reported IC50? molecule: `C=CC(=O)N1CCC(Oc2cnc3[nH]cc(C(=O)N[C@H](C)COC)c3n2)CC1`
YES

Input C=CC(=O)N1CC[C@@H](OC)[C@@H](Nc2cnc3[nH]cc(C(=O)N[C@H](C)COC)c3n2)C1 (single isomer, unassigned)
YES

Input C=CC(=O)N1CC(Nc2cnc3[nH]cc(C(=O)NCC)c3n2)CCC1C (single isomer, unassigned)
NO

Input C=CC(=O)N1CCN(c2cnc3[nH]cc(C(=O)NC(CO)c4ccccc4F)c3n2)CC1(C)C (racemic)
NO

Input `C=CC(=O)N1CC[C@H](Nc2cnc3[nH]cc(C(=O)NCC)c3n2)[C@H](OC)C1`
YES
